Data credit: patent US10800813

tested.on: T1, human plasma Kallikrein (human, UniProt P03952 20-638, limits assumed)
T1 construct: also called hPK; human PK
test.description: enzyme inhibition assay
Numbered stars: 1 amine (or outer) side, 2 acyl side, 3 side chain; on linkers, the order of the positions; unused ones are H or OH. Bridge positions count the residues as written; N and C are the ends. Square brackets hold non-standard residues; d marks the D form. TBMB = c1c(C[*:1])cc(C[*:3])cc1C[*:2]; β3hR = N=C(N)NCCC[C@H](N)CC(=O)O; Cit = NC(=O)NCCC[C@H](N)C(=O)O; Agb = N=C(N)NCC[C@H](N)C(=O)O; Agp = N=C(N)NC[C@H](N)C(=O)O
measured.attribute: Ki (nM)
Record the value in nM, omitting the unit from your answer.

For the binder Ac-CSWPA[Agb]CLHQDLC-NH2 (linker 1-7-13 via TBMB; SMILES CC(=O)N[C@H]1CSCc2cc3cc(c2)CSC[C@H](NC(=O)[C@H](CCNC(=N)N)NC(=O)[C@H](C)NC(=O)[C@@H]2CCCN2C(=O)[C@H](Cc2c[nH]c4ccccc24)NC(=O)[C@H](CO)NC1=O)C(=O)N[C@@H](CC(C)C)C(=O)N[C@@H](Cc1c[nH]cn1)C(=O)N[C@@H](CCC(N)=O)C(=O)N[C@@H](CC(=O)O)C(=O)N[C@@H](CC(C)C)C(=O)N[C@H](C(N)=O)CSC3) [Ac-(06-34-18) Agb5] , what Ki is on record? 83

For the binder Ac-CSWPA[β3hR]CLHQDLC-NH2 (linker 1-7-13 via TBMB; SMILES CC(=O)N[C@H]1CSCc2cc3cc(c2)CSC[C@H](NC(=O)C[C@H](CCCNC(=N)N)NC(=O)[C@H](C)NC(=O)[C@@H]2CCCN2C(=O)[C@H](Cc2c[nH]c4ccccc24)NC(=O)[C@H](CO)NC1=O)C(=O)N[C@@H](CC(C)C)C(=O)N[C@@H](Cc1c[nH]cn1)C(=O)N[C@@H](CCC(N)=O)C(=O)N[C@@H](CC(=O)O)C(=O)N[C@@H](CC(C)C)C(=O)N[C@H](C(N)=O)CSC3) [Ac-(06-34-18) βhomoArg5] , what Ki is on record? 8.2

For the binder Ac-CSWPARCLHQDLC-NH2 (linker 1-7-13 via TBMB; SMILES CC(=O)N[C@H]1CSCc2cc3cc(c2)CSC[C@H](NC(=O)[C@H](CCCNC(=N)N)NC(=O)[C@H](C)NC(=O)[C@@H]2CCCN2C(=O)[C@H](Cc2c[nH]c4ccccc24)NC(=O)[C@H](CO)NC1=O)C(=O)N[C@@H](CC(C)C)C(=O)N[C@@H](Cc1c[nH]cn1)C(=O)N[C@@H](CCC(N)=O)C(=O)N[C@@H](CC(=O)O)C(=O)N[C@@H](CC(C)C)C(=O)N[C@H](C(N)=O)CSC3, also called Ac-(06-34-18) wildtype; Ac-(06-34-18) WPAR) [Ac-06-34-18(TMB)-NH2] , what Ki is on record? 0.17

For the binder Ac-CSWPA[Agp]CLHQDLC-NH2 (linker 1-7-13 via TBMB; SMILES CC(=O)N[C@H]1CSCc2cc3cc(c2)CSC[C@H](NC(=O)[C@H](CNC(=N)N)NC(=O)[C@H](C)NC(=O)[C@@H]2CCCN2C(=O)[C@H](Cc2c[nH]c4ccccc24)NC(=O)[C@H](CO)NC1=O)C(=O)N[C@@H](CC(C)C)C(=O)N[C@@H](Cc1c[nH]cn1)C(=O)N[C@@H](CCC(N)=O)C(=O)N[C@@H](CC(=O)O)C(=O)N[C@@H](CC(C)C)C(=O)N[C@H](C(N)=O)CSC3) [Ac-(06-34-18) Agp5] , what Ki is on record? 1770

For the binder Ac-CSWPA[Cit]CLHQDLC-NH2 (linker 1-7-13 via TBMB; SMILES CC(=O)N[C@H]1CSCc2cc3cc(c2)CSC[C@H](NC(=O)[C@H](CCCNC(N)=O)NC(=O)[C@H](C)NC(=O)[C@@H]2CCCN2C(=O)[C@H](Cc2c[nH]c4ccccc24)NC(=O)[C@H](CO)NC1=O)C(=O)N[C@@H](CC(C)C)C(=O)N[C@@H](Cc1c[nH]cn1)C(=O)N[C@@H](CCC(N)=O)C(=O)N[C@@H](CC(=O)O)C(=O)N[C@@H](CC(C)C)C(=O)N[C@H](C(N)=O)CSC3) [Ac-(06-34-18) Cit5] , what Ki is on record? 7860
